IC50 values, listed per item
target: recombinant human CCR5 receptor (Homo sapiens, UniProt P51681); assay: in vitro radioligand binding assay: inhibition of iodinated MIP-1α binding to CCR5 membranes (scintillation proximity); conditions: displacement of 0.1 nM iodinated MIP-1α; membranes from Chinese hamster ovary cells expressing recombinant human CCR5; average if tested more than once
Sequence (P51681 whole entry): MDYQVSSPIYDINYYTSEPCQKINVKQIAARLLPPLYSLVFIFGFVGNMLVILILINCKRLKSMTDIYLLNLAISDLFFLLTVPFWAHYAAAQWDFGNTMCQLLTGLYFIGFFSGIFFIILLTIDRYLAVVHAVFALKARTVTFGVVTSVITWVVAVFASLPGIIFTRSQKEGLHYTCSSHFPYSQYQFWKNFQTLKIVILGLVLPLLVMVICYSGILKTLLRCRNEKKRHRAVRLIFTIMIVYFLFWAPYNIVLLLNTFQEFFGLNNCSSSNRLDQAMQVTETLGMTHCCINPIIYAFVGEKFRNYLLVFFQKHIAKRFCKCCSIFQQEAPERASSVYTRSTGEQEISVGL
Just the number please, in nM, no unit attached.

CS(=O)(=O)c1ccc([C@@H](CCN2CCC(CNS(=O)(=O)c3ccc(NS(=O)(=O)C(F)(F)F)cc3)CC2)c2cc(F)cc(F)c2)cc1 [Compound 16 (Table II)] = 50.1
CC(=O)Nc1ccc(S(=O)(=O)NCC2CCN(CC[C@@H](c3cc(F)cc(F)c3)C3CCN(S(C)(=O)=O)CC3)CC2)cc1 [Compound 4 (Table I)] = 7.94

# evaluate next
-- ask I'd like to know its IC50. The compound in question is CS(=O)(=O)c1ccc([C@@H](CCN2CCC(CNS(=O)(=O)c3ccc(-c4nnn[nH]4)cc3)CC2)c2cc(F)cc(F)c2)cc1 [Compound 19 (Table II)]
-- reply 7.94
